These data points were gathered from patent US20250084039A1.

The following compounds are shown together with reported IC50 values.
system: MV4-11; assay: IC50 determination (proliferation assay, CellTiter-Blue); type: cell-based; conditions: Homo sapiens, MV4-11
reported endpoint: IC50 (nM)

1) Cc1ccc(C(=O)Nc2ccc(CN3CCN(C)CC3)c(C(F)(F)F)c2)cc1C#Cc1c(N)ncc2ccccc12 : 3.09
2) COc1cc2nc(N)nc(C#Cc3cc(C(=O)Nc4ccc(CN5CCN(C)CC5)c(C(F)(F)F)c4)ccc3C)c2cc1OC : 135
3) CCN(CC)CCNC(=O)c1ccc(C)c(C#Cc2c(N)ncc3ccc(Cl)cc23)c1 : 154
4) Cc1ccc(C(=O)Nc2ccc(CN3CCN(C)CC3)c(C(F)(F)F)c2)cc1C#Cc1cc(N)nc2ccccc12 : 721
5) Cc1ccc(C(=O)NCCN2CCCCC2)cc1C#Cc1c(N)ncc2ccc(Cl)cc12 : 181
6) Cc1ccc(C(=O)Nc2ccc(CN3CCN(C)CC3)c(C(F)(F)F)c2)cc1C#Cc1c(N)ncc2c(Cl)cccc12 : 3.45

---

test system: MV4-11; assay: Activity against AML cell line MV4-11 (CellTiter-Blue, 72 h); type: cell-based; conditions: Homo sapiens, MV4-11, 72 h; read-out: IC50 against MV4-11/uM
Recorded IC50 for the following compounds
reported endpoint: IC50 (µM)

1) Nc1ncc2ccc(Cl)cc2c1C#Cc1ccc(C2=NCCN2)cc1 : 0.008
2) N#Cc1ccc(C#Cc2c(N)ncc3ccc(Cl)cc23)cc1 : 0.84
3) Nc1ncc2ccc(Cl)cc2c1C#Cc1ccc(C2=NCCN2CCN2CCCCC2)cc1 : 0.015

---

target: FGFR1 (Homo sapiens (Human)); assay: Reaction Biology HotSpot kinase assay; assay type: biochemical; details: 500 nM compound; read-out: Percentage kinase inhibition FGFR1
Sequence (P11362 22-822): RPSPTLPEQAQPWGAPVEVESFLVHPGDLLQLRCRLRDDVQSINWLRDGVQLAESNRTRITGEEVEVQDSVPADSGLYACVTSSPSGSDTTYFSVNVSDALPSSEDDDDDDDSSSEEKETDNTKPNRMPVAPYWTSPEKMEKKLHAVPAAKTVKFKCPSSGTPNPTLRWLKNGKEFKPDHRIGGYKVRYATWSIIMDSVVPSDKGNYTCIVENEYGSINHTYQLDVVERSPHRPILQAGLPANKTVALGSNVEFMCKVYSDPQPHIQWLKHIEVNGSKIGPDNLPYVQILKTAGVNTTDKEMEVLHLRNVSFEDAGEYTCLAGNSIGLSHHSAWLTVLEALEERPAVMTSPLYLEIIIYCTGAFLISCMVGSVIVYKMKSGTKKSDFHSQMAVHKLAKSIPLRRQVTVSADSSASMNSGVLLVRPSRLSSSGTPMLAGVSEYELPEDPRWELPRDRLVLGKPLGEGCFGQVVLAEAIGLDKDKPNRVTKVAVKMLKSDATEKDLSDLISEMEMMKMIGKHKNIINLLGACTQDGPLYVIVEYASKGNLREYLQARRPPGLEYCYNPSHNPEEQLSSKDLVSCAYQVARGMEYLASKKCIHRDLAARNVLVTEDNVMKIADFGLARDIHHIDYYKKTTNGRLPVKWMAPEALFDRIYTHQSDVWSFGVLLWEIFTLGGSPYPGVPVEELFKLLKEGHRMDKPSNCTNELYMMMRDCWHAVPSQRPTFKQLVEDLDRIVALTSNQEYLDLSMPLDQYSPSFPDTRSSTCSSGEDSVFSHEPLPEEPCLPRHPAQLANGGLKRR
Below, each entry is listed with its recorded inhibition at 0.5 µM.
reported endpoint: inhibition at 0.5 µM (%)

1. Cc1ccc(C(=O)Nc2ccc(CN3CCN(C)CC3)c(C(F)(F)F)c2)cc1C#Cc1cnc(N)c2ccccc12 : 96
2. Cc1ccc(C(=O)Nc2ccc(CN3CCN(C)CC3)c(C(F)(F)F)c2)cc1C#Cc1c(N)ncc2c(Cl)cccc12 : 93
3. CCN(CC)CCNC(=O)c1ccc(C)c(C#Cc2c(N)ncc3ccc(Cl)cc23)c1 : 6
4. Cc1ccc(C(=O)Nc2ccc(CN3CCN(C)CC3)c(C(F)(F)F)c2)cc1C#Cc1cnc(N)c2ncccc12 : 96

---

test system: HeLa; assay: Proliferation inhibition at single concentration (CellTiter-Blue); format: cell-based; conditions: 1 μM compound
reported endpoint: Percent inhibition of proliferation HeLa

1. Nc1ncc2ccc(Cl)cc2c1C#Cc1ccc(C(=O)N2CCC3(CCNCC3)CC2)cc1 : 24%
2. NCCNC(=O)c1ccc(C#Cc2c(N)ncc3ccc(Cl)cc23)cc1 : 22%
3. Nc1ccc(CCNC(=O)c2ccc(C#Cc3c(N)ncc4ccc(Cl)cc34)cc2)cc1 : 0%
4. Nc1ncc2ccc(Cl)cc2c1C#Cc1ccc(C(=O)N[C@H]2CC[C@H](N)CC2)cc1.O=C(O)C(F)(F)F : 22%
5. Nc1ncc2ccc(Cl)cc2c1C#Cc1ccc(C(=O)NCCc2c[nH]cn2)cc1 : 11%
6. Nc1ncc2ccc(Cl)cc2c1C#Cc1cccc(C(=O)NCCc2c[nH]cn2)c1 : 33%
7. CN1CCN(CCCNC(=O)c2ccc(C#Cc3c(N)ncc4ccc(Cl)cc34)cc2)CC1 : 8%
8. CC(C)(C)OC(=O)NC1CCN(C(=O)c2ccc(C#Cc3c(N)ncc4ccc(Cl)cc34)cc2)CC1 : 35%
